Target Desc: UniProt P29597
Sequence (P29597 whole entry, the tested form may be a part): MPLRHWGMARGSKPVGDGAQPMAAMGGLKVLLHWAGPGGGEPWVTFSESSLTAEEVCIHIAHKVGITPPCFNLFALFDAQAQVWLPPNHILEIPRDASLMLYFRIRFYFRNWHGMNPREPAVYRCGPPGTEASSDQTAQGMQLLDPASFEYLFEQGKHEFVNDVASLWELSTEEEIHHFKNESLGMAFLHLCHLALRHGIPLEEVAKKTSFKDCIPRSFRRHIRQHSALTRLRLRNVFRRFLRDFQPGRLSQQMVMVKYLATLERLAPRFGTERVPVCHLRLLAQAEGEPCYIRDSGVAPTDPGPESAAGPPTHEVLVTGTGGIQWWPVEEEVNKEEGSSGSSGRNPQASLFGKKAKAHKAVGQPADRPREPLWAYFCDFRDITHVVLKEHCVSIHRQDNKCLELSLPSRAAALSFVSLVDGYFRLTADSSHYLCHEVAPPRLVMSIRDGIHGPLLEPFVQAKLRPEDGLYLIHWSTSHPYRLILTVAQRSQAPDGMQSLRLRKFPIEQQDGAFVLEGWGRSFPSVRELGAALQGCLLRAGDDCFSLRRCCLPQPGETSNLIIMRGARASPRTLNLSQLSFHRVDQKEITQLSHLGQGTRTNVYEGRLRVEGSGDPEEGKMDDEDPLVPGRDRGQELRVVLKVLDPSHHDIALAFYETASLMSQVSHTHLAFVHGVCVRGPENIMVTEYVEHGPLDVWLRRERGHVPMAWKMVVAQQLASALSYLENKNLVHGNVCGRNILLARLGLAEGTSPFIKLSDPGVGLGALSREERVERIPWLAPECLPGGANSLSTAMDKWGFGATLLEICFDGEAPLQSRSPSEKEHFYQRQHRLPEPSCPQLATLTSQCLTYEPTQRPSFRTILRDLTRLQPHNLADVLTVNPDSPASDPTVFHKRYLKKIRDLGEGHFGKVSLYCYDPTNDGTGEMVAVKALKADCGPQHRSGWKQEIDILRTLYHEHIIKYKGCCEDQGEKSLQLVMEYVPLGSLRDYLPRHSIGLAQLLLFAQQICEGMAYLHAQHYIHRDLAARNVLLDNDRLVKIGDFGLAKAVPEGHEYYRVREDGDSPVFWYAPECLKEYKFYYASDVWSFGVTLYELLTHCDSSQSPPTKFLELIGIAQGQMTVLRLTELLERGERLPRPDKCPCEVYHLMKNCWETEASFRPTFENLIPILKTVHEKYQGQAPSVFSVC
Assay Notes: Inhibition of fluorescein-labeled kinase tracer binding to His-TVMV-fused TYK2 JH2 domain (575 to 869 residues) (unknown origin) measured after 90 mins by HTRF assay
Entries whose IC50 is below 2 nM take criterion met; entries at or above 2 nM take criterion not met.

Challenge: Lab note: IC50 threshold 2 nM. Does this compound come in strictly under it? CCS(=O)(=O)c1ccccc1Nc1cc(Nc2ccc(F)cn2)ncc1C(=O)NC
Response given: criterion not met

Challenge: Find out if reported IC50 for CNC(=O)c1cnc(Nc2ccc(F)cn2)cc1Nc1ccccc1OC is less than 2 nM
Response given: criterion not met

Challenge: Field: below-cutoff. Rule: recorded IC50 strictly less than 2 nM. Subject: CCNC(=O)c1cnc(Nc2ccc(F)cn2)cc1Nc1ccccc1C(N)=O
Response given: criterion not met

Challenge: Is IC50 of NC(=O)c1ccccc1Nc1cc(Nc2ccc(F)cn2)ncc1C(N)=O strictly below 2 nM?
Response given: criterion met

Challenge: Hello, I'm reviewing records and need to know if IC50 of CNC(=O)c1cnc(Nc2ncccn2)cc1Nc1ccccc1C(N)=O is below 2 nM. Could you check?
Response given: criterion not met

Challenge: Criterion: IC50 strictly below 2 nM. Is it met by CN(C)C(=O)c1cnc(Nc2ccc(F)cn2)cc1Nc1ccccc1C(N)=O ?
Response given: criterion not met

Further cases:
Challenge: Lab log: compare recorded IC50 with 2 nM; is it strictly lower for CNC(=O)c1cnc(Nc2ccccc2)cc1Nc1ccccc1C(N)=O ?
Response given: criterion not met

Challenge: Does [2H]C([2H])([2H])NC(=O)c1nnc(Nc2ccc(F)cn2)cc1Nc1ccccc1S(C)(=O)=O have IC50 strictly under 2 nM?
Response given: criterion met

Challenge: Report whether reported IC50 is lower than 2 nM (strictly) for CNC(=O)c1cnc(NC(=O)C2CC2)cc1Nc1ccccc1S(C)(=O)=O
Response given: criterion met

Challenge: Confirm or reject: IC50 of [2H]C([2H])([2H])NC(=O)c1cnc(Nc2ccc(F)cn2)cc1Nc1ccccc1S(C)(=O)=O lies strictly below 2 nM
Response given: criterion met

Challenge: Could you please tell me whether IC50 recorded for CNC(=O)c1cnc(Nc2ccccn2)cc1Nc1ccccc1C(N)=O is less than 2 nM?
Response given: criterion met

Challenge: Is IC50 of CNC(=O)c1cnc(Nc2ccc(F)cn2)cc1Nc1ccccc1 strictly below 2 nM?
Response given: criterion not met

Challenge: Please determine if CNC(=O)c1cnc(Nc2ccc(F)cn2)cc1Nc1ccccc1C(N)=O is below 2 nM in terms of IC50.
Response given: criterion met

Challenge: Please check: IC50 for CNC(=O)c1cnc(Nc2ccc(F)cn2)cc1Nc1ccc(F)c(F)c1OC , strictly under 2 nM or not?
Response given: criterion met

Challenge: A record lists CNC(=O)c1cnc(Nc2ccc(F)cn2)cc1Nc1ccccc1SC . Is its IC50 below 2 nM?
Response given: criterion met

Challenge: In the record for [2H]C([2H])([2H])NC(=O)c1nnc(Nc2ccccn2)cc1Nc1ccccc1S(C)(=O)=O , is IC50 less than 2 nM?
Response given: criterion met

Challenge: Does this compound meet the criterion IC50 < 2 nM? CNC(=O)c1cnc(Nc2ncccc2F)cc1Nc1ccccc1C(N)=O
Response given: criterion not met

Challenge: Does [2H]C([2H])([2H])NC(=O)c1nnc(NC(=O)C2CC2)cc1Nc1ccccc1S(C)(=O)=O have IC50 strictly under 2 nM?
Response given: criterion met
